Taken from patent US20240217966A1.

MEASUREMENT TARGET: Human GLP-1 receptor (Homo sapiens, UniProt P43220)
Construct: expressed in transfected cells
Sequence (P43220 24-463): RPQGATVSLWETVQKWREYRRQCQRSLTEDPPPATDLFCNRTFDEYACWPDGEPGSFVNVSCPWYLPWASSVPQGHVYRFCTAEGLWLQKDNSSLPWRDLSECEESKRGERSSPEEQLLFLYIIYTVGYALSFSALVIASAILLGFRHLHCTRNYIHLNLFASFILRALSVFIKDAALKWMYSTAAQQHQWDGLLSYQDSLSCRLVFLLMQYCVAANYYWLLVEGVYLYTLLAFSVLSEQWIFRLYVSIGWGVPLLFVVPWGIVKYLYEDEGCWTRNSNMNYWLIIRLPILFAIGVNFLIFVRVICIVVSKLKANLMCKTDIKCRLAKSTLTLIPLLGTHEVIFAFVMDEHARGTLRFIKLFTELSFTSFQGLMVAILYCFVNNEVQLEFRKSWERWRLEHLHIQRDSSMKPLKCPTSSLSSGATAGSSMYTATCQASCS
ASSAY INFO: Measurement of GLP-1 receptor agonist activity (cAMP assay)
Assay type: cell-based
STATED CONDITIONS: cAMP increase in GLP-1 R/CHO-K1 cells; 2 nM human GLP-1 (7-36) = 100%, DMSO only = 0%
pEC50: −log10 of the molar value.
The reader will find reported pEC50 values listed item by item below.

>  <MOLECULE>
O=C(O)c1ccc2nc(CN3CCc4cc(C(F)(F)F)c(OCc5ccc(Cl)cc5Cl)nc4C3)n(C[C@@H]3CCO3)c2c1F [Compound I-298]

>  <MEASUREMENT TARGET>
Human GLP-1 receptor (Homo sapiens, UniProt P43220)

>  <pEC50>
9.50

$$$$
>  <MOLECULE>
C[C@H]1c2nc(OCc3ccc(Cl)cc3F)c(C(F)F)cc2CCN1Cc1nc2ccc(C(=O)O)cc2n1C[C@@H]1CCO1 [Compound I-394]

>  <MEASUREMENT TARGET>
Human GLP-1 receptor (Homo sapiens, UniProt P43220)

>  <pEC50>
10.30

$$$$
>  <MOLECULE>
O=C(O)c1ccc2nc(CN3CCc4cc(C(F)(F)F)c(OCc5ccc(Cl)cc5)nc4C3)n(C[C@@H]3CCO3)c2c1 [Compound I-264]

>  <MEASUREMENT TARGET>
Human GLP-1 receptor (Homo sapiens, UniProt P43220)

>  <pEC50>
8.63

$$$$

---

MEASUREMENT TARGET: Human GLP-1 receptor (Homo sapiens, UniProt P43220)
Construct: expressed in transfected cells
ASSAY INFO: Measurement of GLP-1 receptor agonist activity (cAMP assay)
Assay type: cell-based
STATED CONDITIONS: hGLP-1R/CHO-K1 cells, cAMP increase, 37° C. 1 hour
pEC50: −log10 of the molar value.
Listed compounds paired with reported pEC50

>  <INPUT SMILES>
O=C(O)c1ccc2nc(CN3CCc4cc(C(F)(F)F)c(OCc5ccc(F)cc5)cc4C3)n(C[C@@H]3CCO3)c2c1

>  <MEASUREMENT TARGET>
Human GLP-1 receptor (Homo sapiens, UniProt P43220)

>  <pEC50>
8.17

$$$$
>  <INPUT SMILES>
CS(=O)(=O)CCn1c(CN2CCc3cc(C(F)(F)F)c(OCc4ccc(Cl)cc4F)cc3C2)nc2ccc(C(=O)O)cc21

>  <MEASUREMENT TARGET>
Human GLP-1 receptor (Homo sapiens, UniProt P43220)

>  <pEC50>
7.36

$$$$
>  <INPUT SMILES>
O=C(O)c1ccc2nc(CN3CCc4cc(C(F)(F)F)c(OCc5ccc(C(F)F)cc5F)cc4C3)n(C[C@@H]3CCO3)c2c1

>  <MEASUREMENT TARGET>
Human GLP-1 receptor (Homo sapiens, UniProt P43220)

>  <pEC50>
8.22

$$$$

---

MEASUREMENT TARGET: Human GLP-1 receptor (Homo sapiens)
Construct: expressed in transfected cells
ASSAY INFO: Measurement of GLP-1 receptor agonist activity (cAMP assay)
Type: cell-based
STATED CONDITIONS: CHO-K1, hGLP-1R/CHO-K1 cells, cAMP; 100% = human GLP-1 (7-36) at 2 nM, 0% = DMSO only; read-out: Emax(%)
METRIC NAME: Emax (%)

>  <COMPOUND>
CS(=O)(=O)CCn1c(CN2CCc3cc(C(F)(F)F)c(OCc4ccc(Cl)cc4F)cc3C2)nc2ccc(C(=O)O)cc21

>  <RESULT UNIT>
%

>  <RECORDED NUMBER>
83.3

$$$$
>  <COMPOUND>
C[C@H]1c2cc(OCc3ccc(C#N)cc3F)c(C(F)(F)F)cc2CCN1Cc1nc2c(F)cc(C(=O)O)cc2n1C[C@@H]1CCO1

>  <RESULT UNIT>
%

>  <RECORDED NUMBER>
104

$$$$
>  <COMPOUND>
Cc1cc2ccc(Cc3nc4ccc(C(=O)O)cc4n3C[C@@H]3CCO3)cc2nc1OCc1ccc(Cl)cc1F

>  <RESULT UNIT>
%

>  <RECORDED NUMBER>
86

$$$$
>  <COMPOUND>
O=C(O)c1ccc2nc(CN3CCc4cc(C(F)(F)F)c(OCc5ccc(Cl)cc5F)cc4C3C(F)F)n(C[C@@H]3CCO3)c2c1 (mixture of isomers)

>  <RESULT UNIT>
%

>  <RECORDED NUMBER>
124

$$$$
>  <COMPOUND>
O=C(O)c1ccc2nc(CN3CCc4cc(C(F)(F)F)c(OCc5ccc(Cl)cc5F)cc4C3)n(C[C@@H]3CCO3)c2c1Cl

>  <RESULT UNIT>
%

>  <RECORDED NUMBER>
112

$$$$
>  <COMPOUND>
O=C(O)c1ccc2nc(CN3CCc4cc(C(F)(F)F)c(OCc5ccc(Cl)cc5F)cc4C3)n(C[C@@H]3CCO3)c2c1

>  <RESULT UNIT>
%

>  <RECORDED NUMBER>
86

$$$$

---

MEASUREMENT TARGET: Human GLP-1 receptor (Homo sapiens)
Construct: expressed in transfected cells
ASSAY INFO: Measurement of GLP-1 receptor agonist activity (cAMP assay)
Type: cell-based
STATED CONDITIONS: CHO-K1, maximum effect, cAMP increase in GLP-1 R/CHO-K1 cells; 2 nM human GLP-1 (7-36) = 100%, DMSO only = 0%; read-out: Emax

>  <INPUT SMILES>
Cc1ccc(COc2nc3c(cc2C(F)(F)F)CCN(Cc2nc4ccc(C(=O)O)cc4n2C[C@@H]2CCO2)[C@H]3C)cc1

>  <MEASUREMENT TARGET>
Human GLP-1 receptor (Homo sapiens)

>  <Emax>
121%

$$$$
>  <INPUT SMILES>
COc1cc(C(=O)O)cc2c1nc(CN1CCc3cc(C(F)(F)F)c(OCc4cc(F)c(Cl)cc4F)nc3[C@@H]1C)n2C[C@@H]1CCO1

>  <MEASUREMENT TARGET>
Human GLP-1 receptor (Homo sapiens)

>  <Emax>
95.3%

$$$$
>  <INPUT SMILES>
C[C@H]1c2nc(OCc3ccc(Cl)cc3Cl)c(C(F)(F)F)cc2CCN1Cc1nc2ccc(C(=O)O)cc2n1C[C@@H]1CCO1

>  <MEASUREMENT TARGET>
Human GLP-1 receptor (Homo sapiens)

>  <Emax>
122%

$$$$
>  <INPUT SMILES>
C[C@H]1c2cc(OCc3ccc(OC(F)F)cc3F)c(Cl)cc2CCN1Cc1nc2ccc(C(=O)O)c(F)c2n1C[C@@H]1CCO1

>  <MEASUREMENT TARGET>
Human GLP-1 receptor (Homo sapiens)

>  <Emax>
100%

$$$$
>  <INPUT SMILES>
O=C(O)c1cc(F)c2nc(CN3CCc4cc(C(F)(F)F)c(OCc5ccc(Cl)cc5F)nc4C3)n(C[C@@H]3CCO3)c2c1

>  <MEASUREMENT TARGET>
Human GLP-1 receptor (Homo sapiens)

>  <Emax>
112%

$$$$
>  <INPUT SMILES>
O=C(O)c1cc(F)c2nc(CN3CCc4cc(C(F)(F)F)c(OCc5ccc(F)cc5F)nc4C3)n(C[C@@H]3CCO3)c2c1

>  <MEASUREMENT TARGET>
Human GLP-1 receptor (Homo sapiens)

>  <Emax>
109%

$$$$

---

MEASUREMENT TARGET: Human GLP-1 receptor (Homo sapiens)
Construct: expressed in transfected cells
ASSAY INFO: Measurement of GLP-1 receptor agonist activity (cAMP assay)
Type: cell-based
STATED CONDITIONS: cAMP increase in GLP-1 R/CHO-K1 cells; 2 nM human GLP-1 (7-36) = 100%, DMSO only = 0%
Assign labels as follows, please: label 1 for EC50 below 0.09 nM; label 0 for EC50 equal to or exceeding 0.09 nM.

>  <INPUT SMILES>
COc1ccc(COc2nc3c(cc2C(F)(F)F)CCN(Cc2nc4ccc(C(=O)O)nc4n2C[C@@H]2CCO2)[C@H]3C)cc1

>  <MEASUREMENT TARGET>
Human GLP-1 receptor (Homo sapiens)

>  <CAT>
label 0

$$$$
>  <INPUT SMILES>
COc1cc(C(=O)O)cc2c1nc(CN1CCc3cc(C(F)(F)F)c(OCc4ccc(C)cc4)nc3[C@@H]1C)n2C[C@@H]1CCO1

>  <MEASUREMENT TARGET>
Human GLP-1 receptor (Homo sapiens)

>  <CAT>
label 1

$$$$
>  <INPUT SMILES>
Cc1ccc(COc2nc3c(cc2C(F)(F)F)CCN(Cc2nc4ccc(C(=O)O)nc4n2C[C@@H]2CCO2)[C@H]3C)cc1

>  <MEASUREMENT TARGET>
Human GLP-1 receptor (Homo sapiens)

>  <CAT>
label 0

$$$$
>  <INPUT SMILES>
C[C@H]1c2cc(OCc3ccc(Cl)cn3)c(Cl)cc2CCN1Cc1nc2ccc(C(=O)O)c(F)c2n1C[C@@H]1CCO1

>  <MEASUREMENT TARGET>
Human GLP-1 receptor (Homo sapiens)

>  <CAT>
label 0

$$$$
>  <INPUT SMILES>
C[C@H]1c2nc(OCc3ccccc3Cl)c(C(F)(F)F)cc2CCN1Cc1nc2ccc(C(=O)O)cc2n1C[C@@H]1CCO1

>  <MEASUREMENT TARGET>
Human GLP-1 receptor (Homo sapiens)

>  <CAT>
label 0

$$$$
>  <INPUT SMILES>
Cc1ccc(COc2nc3c(cc2C(F)(F)F)CCN(Cc2nc4ccc(C(=O)O)cc4n2C[C@@H]2CCO2)[C@H]3C)cc1

>  <MEASUREMENT TARGET>
Human GLP-1 receptor (Homo sapiens)

>  <CAT>
label 0

$$$$
>  <INPUT SMILES>
C[C@H]1c2nc(OCc3c(F)cc(F)cc3F)c(C(F)(F)F)cc2CCN1Cc1nc2ccc(C(=O)O)c(F)c2n1C[C@@H]1CCO1

>  <MEASUREMENT TARGET>
Human GLP-1 receptor (Homo sapiens)

>  <CAT>
label 1

$$$$
>  <INPUT SMILES>
COc1cc(Cl)ccc1COc1nc2c(cc1C(F)(F)F)CCN(Cc1nc3c(OC)cc(C(=O)O)cc3n1C[C@@H]1CCO1)[C@H]2C

>  <MEASUREMENT TARGET>
Human GLP-1 receptor (Homo sapiens)

>  <CAT>
label 1

$$$$
>  <INPUT SMILES>
C[C@H]1c2nc(OCc3ccc(Cl)cc3)c(C(F)(F)F)cc2CCN1Cc1nc2ccc(C(=O)O)nc2n1C[C@@H]1CCO1

>  <MEASUREMENT TARGET>
Human GLP-1 receptor (Homo sapiens)

>  <CAT>
label 0

$$$$
>  <INPUT SMILES>
COc1cc(Cl)ccc1COc1nc2c(cc1C(F)(F)F)CCN(Cc1nc3ccc(C(=O)O)c(F)c3n1C[C@@H]1CCO1)[C@H]2C

>  <MEASUREMENT TARGET>
Human GLP-1 receptor (Homo sapiens)

>  <CAT>
label 1

$$$$
>  <INPUT SMILES>
C[C@H]1c2cc(OCc3ccc(Cl)cc3F)c(Cl)cc2CCN1Cc1nc2c(F)cc(C(=O)O)cc2n1C[C@@H]1CCO1

>  <MEASUREMENT TARGET>
Human GLP-1 receptor (Homo sapiens)

>  <CAT>
label 0

$$$$
>  <INPUT SMILES>
O=C(O)c1ccc2nc(CN3CCc4cc(C(F)(F)F)c(OCc5ccc(Cl)cc5F)nc4C3)n(C[C@@H]3CCO3)c2n1

>  <MEASUREMENT TARGET>
Human GLP-1 receptor (Homo sapiens)

>  <CAT>
label 0

$$$$
>  <INPUT SMILES>
C[C@H]1c2cc(OCc3ccc(Cl)cc3F)c(C(F)F)cc2CCN1Cc1nc2ccc(C(=O)O)cc2n1C[C@@H]1CCO1

>  <MEASUREMENT TARGET>
Human GLP-1 receptor (Homo sapiens)

>  <CAT>
label 0

$$$$
